system: Chlorella protothecoides; settings: 5-6 days, room temperature, 96-well, algae colour under 20× microscope; ND = AMP killed all the algae
Ends that are not written are not given here.
ATTRIBUTE MEASURED: Minimal Inhibitory Concentration (MIC) Chlorella protothecoides

{"columns": ["SEQUENCE INPUT", "OBS VALUE"],
 "data": [
  ["GIWGTALKWGVKLLPKLVGMAQTKKQ [Ponericin W4]", "43.8 µM"],
  ["GIWGTLAKIGIKAVPRVISMLKKKKQ [Ponericin W3]", "21.8 µM"],
  ["IWLTALKFLGKHAAKHLAKQQLSKL [Lycotoxin-1, Lycotoxin I]", "44 µM"],
  ["MASRHMFLPLIGRVLSGIL [MsrA3]", "59.2 µM"],
  ["GLVDVLGKVGGLIKKLLP [Ponericin G6]", "274.9 µM"]
]}

* * *

Tested on: Chlorella protothecoides
Conditions: 5-6 days, room temperature, 96-well, algae colour under 20× microscope; ND = AMP killed all the algae
Experimental: This example provides the minimal inhibitory concentration (MIC) of antimicrobial peptides (AMPs) for algae. […] Therefore, the tolerance of algae to the AMPs listed in Table 2 of Example 1 was measured. Briefly, the algae viability assay used herein measured the “health” of the algae cultures by looking at the color of the algae. […] The effect of insecticidal and non-insecticidal AMPs on three different algae species was measured. […]
Ends that are not written are not given here.
The following ranges of Minimal Inhibitory Concentration (MIC) Chlorella protothecoides define the classes used here: low: < 20 µM; moderate: ≥ 20 µM and < 80 µM; high: ≥ 80 µM

{"columns": ["SEQUENCE INPUT", "GROUP"],
 "data": [
  ["FWGALIKGAAKLIPSVVGLFKKKQ [Ponericin W5]", "low"],
  ["FSFKRLKGFAKKLWNSKLARKIRTKGLKYVKNFAKDMLSEGEEAPPAAEPPVEAPQ [Im-1]", "low"],
  ["FLPLIGKVLSGIL [Temporin F, Temporin-F]", "high"],
  ["GWKDWLNKGKEWLKKKGPGIMKAALKAATQ [Ponericin G3]", "moderate"],
  ["KWKLFKKIEKVGQNIRDGIIKAGPAVAVVGQATQIAK [Cecropin A]", "high"],
  ["FFHHIFRGIVHVGKTIHKLVTG [Piscidin 2]", "moderate"],
  ["GFGSLFKFLAKKVAKTVAKQAAKQGAKYVANKHME [Cupiennin 1D]", "low"],
  ["LLKELWTKIKGAGKAVLGKIKGLL [Ponericin L2]", "moderate"],
  ["WLGSALKIGAKLLPSVVGLFKKKKQ [Ponericin W1]", "moderate"],
  ["DFKDWMKTAGEWLKKKGPGILKAAMAAAT [Ponericin G4]", "high"]
]}

Taken from patent US20140296137A1.
